- Test system: SF-268
- Experiment Summary: NCI tumour cell line growth inhibition, 48 h
The source made the active and inactive calls. Cut-off read from the data, not from the text of the source: active = GI50 up to about 1.1 µM and inactive = higher.
Exercise: for every item that follows, state its recorded GI50.

- Compound: "O=C(NCCc1ccccc1)c1cc(/C=C/c2cc(O)ccc2O)ccc1O"
  GI50: "3.19 µM (inactive)"
- Compound: "C=C(c1ccccc1)c1ccccc1-c1cc(-c2ccccc2)cc(-c2ccccc2)n1"
  GI50: "> 100 µM (inactive)"
- Compound: "NCCCN(CCCN)CCCNCc1c2ccccc2c(CNCCCN(CCCN)CCCN)c2ccccc12"
  GI50: "18.3 µM (inactive)"
- Compound: "CCc1nnc(S)n1/N=C\\c1ccc(-c2ccccc2[N+](=O)[O-])o1"
  GI50: "36.7 µM (inactive)"

Now consider a different compound.
Lab request: please report GI50 under test system SF-268 for CCCCN(C)CC(C(C)=O)C(c1ccccc1)c1c(O)c2ccccc2oc1=O (stereo not given) > 100 µM (inactive)
